- ASSAY_TARGET: T1, human TIGIT on Jurkat cells (TIGIT/NFAT reporter Jurkat cells, BPS Bioscience #60538); Promega TIGIT Effector … (human, UniProt Q495A1 22-244)
- T1 sequence (looked up): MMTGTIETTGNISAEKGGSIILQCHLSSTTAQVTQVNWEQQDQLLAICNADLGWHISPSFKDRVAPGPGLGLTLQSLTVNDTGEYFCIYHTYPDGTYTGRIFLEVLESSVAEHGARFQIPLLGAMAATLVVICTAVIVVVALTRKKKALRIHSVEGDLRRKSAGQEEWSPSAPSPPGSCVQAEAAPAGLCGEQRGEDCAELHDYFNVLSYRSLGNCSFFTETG
- ASSAY_METHOD_TEXT: cell-based or functional assay
READOUT_KIND: max. signal (% of 22G2)

The binder 43586p1.2.E2 (scFv, V domains shown) VH: EVQLLESGGGLVQPGGSLRLSCAASGFTFTSYLMSWVRQAPGKGLEWVSTITWDGDRTYYADSVKGRFTISRDNSKNTLYLQMNSLRVGDTAVYYCAKHWTVFQYGMDVWGQGTTVTVSS VL: QSVLTQPASASGTPGQRVTISCSGTISNIETKYVSWYQQLPGTAPKLLIYGNHQRPSGVPDRFSGSKSGTSASLAISGLQSEDEADYYCASWENDLKSWVFGGGTKLTVL showed max. signal (% of 22G2) equal to 125 % of 22G2

Data origin, for the record: patent US20230265187A1
